# targetDesc: Myc proto-oncogene protein (Homo sapiens)
# assay: ATG_Myc_CIS: Attagene CIS-FACTORIAL HepG2 Assay for human Myelocytomatosis (Myc) Proto-Oncogene Transcription Factor (AID 2282990)
# testParameters: HepG2, Attagene cis-reporter transcription factor activity; actives raise or lower the signal
# Description: ATG_CIS is a cell-based, multiplexed-readout assay that uses HepG2, a human liver cell line, with measurements taken at 24 hours after chemical dosing in a 24-well plate.ATG_Myc_CIS is one of 52 assay component(s) measured or calculated from the ATG_CIS assay. […] This assay endpoint, ATG_Myc_CIS, was analyzed with bidirectional fitting relative to DMSO as the negative control and baseline of activity. […]
Activity calls are given as the source filed them. How the source made its calls: active means hit-call score of the fitted dose curve at least 0.9, where 1 is the maximum; inactive means score below 0.9.
Mark one answer only. Choices: active, inactive

| compound | targetDesc | assignedLabel |
| --- | --- | --- |
| O=NN1CCCC1 | Myc proto-oncogene protein (Homo sapiens) | inactive |
| Cc1cccc(N)c1 | Myc proto-oncogene protein (Homo sapiens) | inactive |
| COP(=O)(O)OC | Myc proto-oncogene protein (Homo sapiens) | inactive |
| CC(O)C#N (stereo not drawn) | Myc proto-oncogene protein (Homo sapiens) | inactive |

(Q) Hello, I am checking results. What call was entered for CC(C)Nc1ccc(Nc2ccccc2)cc1 ?
(A) inactive

(Q) Hello, I am checking results. What call was entered for CC1=C(C(=O)Nc2ccccc2)S(=O)(=O)CCO1 ?
(A) inactive

(Q) Hello, I am checking results. What call was entered for CC(=O)c1ccc(-c2ccccc2)cc1 ?
(A) inactive

(Q) Hello, I am checking results. What call was entered for CO/N=C(/C(=O)OC)c1ccccc1COc1ccccc1C ?
(A) inactive

(Q) Hello, I am checking results. What call was entered for C=CC(=O)OCC(CC)(COC(=O)C=C)COC(=O)C=C ?
(A) inactive
